# Species on record: Rattus norvegicus
# PROCEDURE_TEXT: DrugMatrix - Regimen: Daily Repeat
# Format: toxicity, organism-based, Sprague-Dawley
# Parameters: regimen Daily Repeat, gender Male, age 6-8 weeks
# PARTICULARS: in vivo, po, 120 mg/kg, 72 h, tissue Blood, route oral GAVAGE, dose level High, time 3 day, vehicle 100 % WATER
REPORTED_PROPERTY: ABSOLUTE BASOPHIL (CELLS/uL)
Give bare numbers, in CELLS/uL.

// ABSOLUTE BASOPHIL lookup, key: c1ccc([C@H]2CN3CCSC3=N2)cc1
0

###

# Species on record: Rattus norvegicus
# PROCEDURE_TEXT: DrugMatrix - Regimen: Daily Repeat
# Format: toxicity, organism-based, Sprague-Dawley
# Set-up: regimen Daily Repeat, gender Male, age 6-8 weeks
# PARTICULARS: in vivo, po, 0 mg/kg, 72 h, tissue Blood, route oral GAVAGE, dose level Control, time 3 day, […]
REPORTED_PROPERTY: NUCLEATED RED BLOOD CELLS

Some compounds with recorded NUCLEATED RED BLOOD CELLS:
| COMPOUND | NUCLEATED RED BLOOD CELLS |
| --- | --- |
| OC(Cn1cncn1)(Cn1cncn1)c1ccc(F)cc1F [FLUCONAZOLE] | 0 /100WBC |
| C[C@H]1O[C@@H](O[C@H]2[C@@H](O)C[C@H](O[C@H]3[C@@H](O)C[C@H](O[C@H]4CC[C@@]5(C)[C@H](CC[C@@H]6[C@@H]5C[C@@H](O)[C@]5(C)[C@@H](C7=CC(=O)OC7)CC[C@]65O)C4)O[C@@H]3C)O[C@@H]2C)C[C@H](O)[C@@H]1O [DIGOXIN] | 0.17 /100WBC |
| CCC(C)n1ncn(-c2ccc(N3CCN(c4ccc(OCC5COC(Cn6cncn6)(c6ccc(Cl)cc6Cl)O5)cc4)CC3)cc2)c1=O (centres undefined) [ITRACONAZOLE] | 0 /100WBC |
| CN(C)c1nc(N(C)C)nc(N(C)C)n1 [ALTRETAMINE] | 0 /100WBC |

I'm hoping you can list NUCLEATED RED BLOOD CELLS for every compound here, please.
1. C[C@@H]1CN(c2c(F)c(N)c3c(=O)c(C(=O)O)cn(C4CC4)c3c2F)C[C@H](C)N1 [SPARFLOXACIN]
2. CCOC(=O)C1=C(COCCN)NC(C)=C(C(=O)OC)C1c1ccccc1Cl (centres undefined) [AMLODIPINE]
3. CC(C)(Oc1ccc(Cl)cc1)C(=O)O [CLOFIBRIC ACID]
4. Cc1noc(NS(=O)(=O)c2ccc(N)cc2)c1C [SULFISOXAZOLE]

["0 /100WBC", "0 /100WBC", "0 /100WBC", "0 /100WBC"]

Dear colleague, could you please provide NUCLEATED RED BLOOD CELLS for the compounds listed below?
1. CC(C)C(=O)Nc1ccc([N+](=O)[O-])c(C(F)(F)F)c1 [FLUTAMIDE]
2. Cc1oncc1C(=O)Nc1ccc(C(F)(F)F)cc1 [LEFLUNOMIDE]
3. O=NN(CCCl)C(=O)NC1CCCCC1 [LOMUSTINE]
4. Cc1ccc(-c2cc(C(F)(F)F)nn2-c2ccc(S(N)(=O)=O)cc2)cc1 [CELECOXIB]
5. O=c1oc2ccccc2c(O)c1Cc1c(O)c2ccccc2oc1=O [DICUMAROL]
6. O=C(O)CCCc1ccc(N(CCCl)CCCl)cc1 [CHLORAMBUCIL]

["0.33 /100WBC", "0 /100WBC", "0 /100WBC", "0 /100WBC", "0.17 /100WBC", "0 /100WBC"]

Sourced from ChEMBL document CHEMBL3885881
